Record set of IC50 for target or system Aldo-keto reductase family 1 member B1 (Sus scrofa).
TEST_READOUT: IC50 (µM)

                                   molecule                             target_system  val
0  Cc1cc2c(s1)CCC1CC(=O)N(CCCCCC(=O)O)N=C21 (configuration not stated)  Aldo-keto reductase family 1 member B1 (Sus scrofa)   18
1  O=C(O)CCCCCN1N=C2c3ccsc3CCC2CC1=O (configuration not stated)  Aldo-keto reductase family 1 member B1 (Sus scrofa)  7.6

---

# TARGET_SYSTEM: UniProt Q64604
# Sequence (Q64604 whole entry): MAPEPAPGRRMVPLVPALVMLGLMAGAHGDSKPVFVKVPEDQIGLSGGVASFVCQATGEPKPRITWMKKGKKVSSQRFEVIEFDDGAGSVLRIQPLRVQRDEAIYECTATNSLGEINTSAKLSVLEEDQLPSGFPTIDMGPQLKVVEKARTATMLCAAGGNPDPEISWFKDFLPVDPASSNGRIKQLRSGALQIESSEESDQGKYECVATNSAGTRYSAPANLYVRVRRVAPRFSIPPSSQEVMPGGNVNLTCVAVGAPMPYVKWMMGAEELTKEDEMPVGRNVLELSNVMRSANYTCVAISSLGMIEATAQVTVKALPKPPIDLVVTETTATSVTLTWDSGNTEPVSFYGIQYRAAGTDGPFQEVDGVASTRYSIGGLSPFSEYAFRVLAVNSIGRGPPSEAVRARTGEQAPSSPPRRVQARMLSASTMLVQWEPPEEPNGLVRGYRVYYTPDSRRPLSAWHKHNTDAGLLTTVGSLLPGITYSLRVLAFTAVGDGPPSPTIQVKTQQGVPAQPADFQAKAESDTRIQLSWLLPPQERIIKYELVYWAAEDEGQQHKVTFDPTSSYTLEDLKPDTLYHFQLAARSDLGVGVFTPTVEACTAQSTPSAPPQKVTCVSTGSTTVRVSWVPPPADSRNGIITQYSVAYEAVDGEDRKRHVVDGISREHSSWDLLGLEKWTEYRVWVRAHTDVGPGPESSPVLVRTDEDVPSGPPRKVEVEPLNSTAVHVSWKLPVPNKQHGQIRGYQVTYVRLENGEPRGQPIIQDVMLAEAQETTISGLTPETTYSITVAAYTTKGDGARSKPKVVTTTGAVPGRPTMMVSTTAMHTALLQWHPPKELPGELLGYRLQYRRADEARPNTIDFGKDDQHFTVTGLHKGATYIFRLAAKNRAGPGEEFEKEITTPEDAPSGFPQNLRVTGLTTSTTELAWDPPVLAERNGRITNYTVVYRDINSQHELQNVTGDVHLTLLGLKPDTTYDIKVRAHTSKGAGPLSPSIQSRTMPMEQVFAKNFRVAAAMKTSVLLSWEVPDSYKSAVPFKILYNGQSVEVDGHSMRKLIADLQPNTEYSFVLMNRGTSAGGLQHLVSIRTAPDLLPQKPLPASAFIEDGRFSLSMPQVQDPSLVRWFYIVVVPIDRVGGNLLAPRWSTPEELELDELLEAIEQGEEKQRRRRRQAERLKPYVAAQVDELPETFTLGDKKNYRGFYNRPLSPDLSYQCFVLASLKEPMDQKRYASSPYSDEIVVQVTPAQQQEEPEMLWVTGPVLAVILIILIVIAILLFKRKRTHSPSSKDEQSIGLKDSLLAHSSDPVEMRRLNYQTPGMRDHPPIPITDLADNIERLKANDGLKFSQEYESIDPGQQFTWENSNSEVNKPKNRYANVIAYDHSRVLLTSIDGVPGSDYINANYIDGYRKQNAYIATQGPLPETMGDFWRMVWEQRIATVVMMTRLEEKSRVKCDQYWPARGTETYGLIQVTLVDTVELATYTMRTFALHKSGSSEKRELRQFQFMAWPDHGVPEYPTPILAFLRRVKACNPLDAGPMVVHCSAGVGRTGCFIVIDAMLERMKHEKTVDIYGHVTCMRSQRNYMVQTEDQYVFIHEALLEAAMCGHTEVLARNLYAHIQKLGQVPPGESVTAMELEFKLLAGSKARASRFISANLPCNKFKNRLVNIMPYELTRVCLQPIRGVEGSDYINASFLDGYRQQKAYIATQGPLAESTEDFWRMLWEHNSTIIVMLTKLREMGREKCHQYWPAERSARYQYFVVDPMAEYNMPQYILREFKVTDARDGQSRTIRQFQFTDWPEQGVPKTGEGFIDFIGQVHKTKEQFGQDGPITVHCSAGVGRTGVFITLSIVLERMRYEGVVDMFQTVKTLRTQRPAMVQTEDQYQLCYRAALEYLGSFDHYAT
# METHOD: Inhibition of rat recombinant LAR expressed in Escherichia coli assessed as inhibition constant using pNPP as substrate incubated for 5 mins by […]
pKi: −log10 of the molar value.
TEST_READOUT: pKi

In [3]: df
Out[3]:
                                 cpd_smiles   target_system  test_readout   val
0  O=C(CCc1ccc(C(F)(F)P(=O)(O)O)cc1)Nc1cc(NC(=O)CCc2ccc(C(F)(F)P(=O)(O)O)cc2)cc(C(=O)NCCc2ccc(C(=O)O)cc2)c1  UniProt Q64604           pKi  4.00

---

# TARGET_SYSTEM: Tyrosine-protein phosphatase non-receptor type 2 (Homo sapiens, UniProt P17706)
# Sequence (P17706 whole entry): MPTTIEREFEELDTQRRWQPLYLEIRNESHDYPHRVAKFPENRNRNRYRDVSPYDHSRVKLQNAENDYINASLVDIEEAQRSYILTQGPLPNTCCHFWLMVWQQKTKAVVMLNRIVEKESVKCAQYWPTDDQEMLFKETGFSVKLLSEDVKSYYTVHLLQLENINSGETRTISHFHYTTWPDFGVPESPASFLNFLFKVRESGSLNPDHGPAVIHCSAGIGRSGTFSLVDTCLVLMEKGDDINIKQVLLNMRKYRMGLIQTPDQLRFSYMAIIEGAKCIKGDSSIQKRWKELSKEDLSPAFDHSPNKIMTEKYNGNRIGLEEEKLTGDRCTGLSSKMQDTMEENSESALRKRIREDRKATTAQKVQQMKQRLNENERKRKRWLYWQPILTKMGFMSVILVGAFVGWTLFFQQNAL
TEST_READOUT: IC50 (nM)

>>> print(df.to_string())
                                   compound   val
0  Cc1noc(-c2ccc(C(C/C=C/c3ccccc3)(Cc3ccc(C(F)(F)P(=O)(O)O)cc3)n3nnc4ccccc43)cc2)n1 (stereo unspecified)  1600

---

# TARGET_SYSTEM: Tyrosine-protein phosphatase non-receptor type 1 (Homo sapiens, UniProt P18031)
# Sequence (P18031 whole entry): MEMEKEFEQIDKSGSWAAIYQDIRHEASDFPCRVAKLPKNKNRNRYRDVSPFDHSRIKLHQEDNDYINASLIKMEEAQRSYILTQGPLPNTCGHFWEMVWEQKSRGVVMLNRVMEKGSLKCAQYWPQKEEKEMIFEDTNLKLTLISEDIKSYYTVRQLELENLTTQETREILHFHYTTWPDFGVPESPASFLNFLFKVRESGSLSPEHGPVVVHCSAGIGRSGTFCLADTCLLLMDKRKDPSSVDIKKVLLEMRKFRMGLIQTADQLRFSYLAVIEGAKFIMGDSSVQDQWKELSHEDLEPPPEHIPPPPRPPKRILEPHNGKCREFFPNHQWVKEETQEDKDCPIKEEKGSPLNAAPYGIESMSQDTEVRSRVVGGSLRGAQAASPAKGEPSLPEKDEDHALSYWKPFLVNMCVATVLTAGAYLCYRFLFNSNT
# METHOD: Inhibition of PTP1B (unknown origin) assessed as inhibition constant
pKi: −log10 of the molar value.
pKi reference
TEST_READOUT: pKi

                                 cpd_smiles                             target_system   val
0  COC(=O)c1c(O)cccc1OC/C=C/c1cccc(-c2onc(C(=O)O)c2N)c1  Tyrosine-protein phosphatase non-receptor type 1 (Homo sapiens, UniProt P18031)  5.68
1  COC(=O)c1c(O)cccc1OC/C=C/c1ccc(F)c(-c2cc(C(=O)O)no2)c1  Tyrosine-protein phosphatase non-receptor type 1 (Homo sapiens, UniProt P18031)  5.16
2  COC(=O)c1c(O)cccc1OC/C=C/c1cccc(-c2onc(C(=O)O)c2CO)c1  Tyrosine-protein phosphatase non-receptor type 1 (Homo sapiens, UniProt P18031)  6.04
